Test system: Mus musculus
Protocol: Antidepressant activity in mouse assessed as immobility time at 1 mg/kg, ip by forced swimming test
Format: functional
Conditions Used: route intraperitoneal

{"columns": ["Compound", "Time (s)"],
 "data": [
  ["CCOc1nc2ccccc2nc1C(=O)N1CCN(c2ccccc2)CC1", 134],
  ["CCOc1nc2ccccc2nc1C(=O)Nc1cccnc1", 144],
  ["CCOc1nc2ccccc2nc1C(=O)N1CCN(CC)CC1", 98],
  ["CCOc1nc2ccccc2nc1C(=O)N1CCN(Cc2ccccc2)CC1", 160],
  ["C=CCN1CCN(C(=O)c2nc3ccccc3nc2OCC)CC1", 127],
  ["CCOc1nc2ccccc2nc1C(=O)NCCN(C)C", 117.7],
  ["CCOc1nc2ccccc2nc1C(=O)N1CCN(c2cccc(Cl)c2)CC1", 110.6],
  ["CCOc1nc2ccccc2nc1C(=O)N1CCN(c2ccc(Cl)cc2)CC1", 146.6],
  ["CCOc1nc2ccccc2nc1C(=O)NCCc1c[nH]c2ccccc12", 104],
  ["Cc1nccn1CC1CCc2c(c3ccccc3n2C)C1=O (stereo unspecified) [ONDANSETRON]", 100.4],
  ["CCOc1nc2ccccc2nc1C(=O)N1CCN(c2cccc(C(F)(F)F)c2)CC1", 148],
  ["CCOc1nc2ccccc2nc1C(=O)N1CCN(c2ccccc2OC)CC1", 113.3],
  ["CCOc1nc2ccccc2nc1C(=O)N1CCN(C)CC1", 94],
  ["CCOc1nc2ccccc2nc1C(=O)Nc1ccc(N(CC)CC)cc1", 145],
  ["CCOc1nc2ccccc2nc1C(=O)N1CCN(c2ccc(OC)cc2)CC1", 114.6],
  ["CCOc1nc2ccccc2nc1C(=O)NCCN(CC)CC", 162]
]}

====

Test system: Mus musculus
Protocol: Antipsychotic activity in Swiss Albino mouse assessed as spontaneous locomotor score at 1 mg/kg, ip measured for 10 mins by actophotometer
Type: functional
Conditions Used: route intraperitoneal
Listing: Activity of selected molecules

{"columns": ["Molecule", "Target Desc", "Scale Unit", "Activity"],
 "data": [
  ["CCOc1nc2ccccc2nc1C(=O)N1CCN(CC)CC1", "Mus musculus", "score", 360],
  ["CCOc1nc2ccccc2nc1C(=O)N1CCN(c2cccc(Cl)c2)CC1", "Mus musculus", "score", 352],
  ["CCOc1nc2ccccc2nc1C(=O)N1CCN(C)CC1", "Mus musculus", "score", 350],
  ["C=CCN1CCN(C(=O)c2nc3ccccc3nc2OCC)CC1", "Mus musculus", "score", 360],
  ["CCOc1nc2ccccc2nc1C(=O)N1CCN(c2ccccc2)CC1", "Mus musculus", "score", 382],
  ["CCOc1nc2ccccc2nc1C(=O)N1CCN(Cc2ccccc2)CC1", "Mus musculus", "score", 366],
  ["CCOc1nc2ccccc2nc1C(=O)Nc1ccc(N(CC)CC)cc1", "Mus musculus", "score", 374],
  ["CCOc1nc2ccccc2nc1C(=O)NCCc1c[nH]c2ccccc12", "Mus musculus", "score", 350],
  ["CCOc1nc2ccccc2nc1C(=O)N1CCN(c2cccc(C(F)(F)F)c2)CC1", "Mus musculus", "score", 356],
  ["Cc1nccn1CC1CCc2c(c3ccccc3n2C)C1=O (stereo unspecified) [ONDANSETRON]", "Mus musculus", "score", 388],
  ["CCOc1nc2ccccc2nc1C(=O)NCCN(C)C", "Mus musculus", "score", 349]
]}
